# measured-on: Integrin alpha-IIb/beta-3 (Homo sapiens, UniProt P05106+P08514)
# Sequence (P05106 27-788 limits assumed): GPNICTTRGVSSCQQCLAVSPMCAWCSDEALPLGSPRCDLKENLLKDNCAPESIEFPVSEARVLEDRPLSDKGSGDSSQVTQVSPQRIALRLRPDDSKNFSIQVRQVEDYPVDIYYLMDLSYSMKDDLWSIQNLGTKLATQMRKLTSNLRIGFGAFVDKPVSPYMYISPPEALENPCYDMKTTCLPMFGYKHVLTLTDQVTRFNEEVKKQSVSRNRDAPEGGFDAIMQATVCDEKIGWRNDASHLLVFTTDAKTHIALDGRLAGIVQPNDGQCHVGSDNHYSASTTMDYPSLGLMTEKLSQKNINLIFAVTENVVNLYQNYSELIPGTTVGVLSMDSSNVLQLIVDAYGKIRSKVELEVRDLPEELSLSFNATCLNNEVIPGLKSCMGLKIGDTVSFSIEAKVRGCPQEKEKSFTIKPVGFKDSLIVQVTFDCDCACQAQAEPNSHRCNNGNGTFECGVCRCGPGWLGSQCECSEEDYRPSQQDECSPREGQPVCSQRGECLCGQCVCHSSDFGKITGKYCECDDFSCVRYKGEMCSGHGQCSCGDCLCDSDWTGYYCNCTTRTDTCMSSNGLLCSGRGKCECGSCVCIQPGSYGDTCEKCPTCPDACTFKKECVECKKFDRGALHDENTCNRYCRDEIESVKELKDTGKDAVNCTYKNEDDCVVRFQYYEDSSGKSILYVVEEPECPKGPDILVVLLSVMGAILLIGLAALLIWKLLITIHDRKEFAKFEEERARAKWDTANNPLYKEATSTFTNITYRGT
# Sequence (P08514 32-887 limits assumed): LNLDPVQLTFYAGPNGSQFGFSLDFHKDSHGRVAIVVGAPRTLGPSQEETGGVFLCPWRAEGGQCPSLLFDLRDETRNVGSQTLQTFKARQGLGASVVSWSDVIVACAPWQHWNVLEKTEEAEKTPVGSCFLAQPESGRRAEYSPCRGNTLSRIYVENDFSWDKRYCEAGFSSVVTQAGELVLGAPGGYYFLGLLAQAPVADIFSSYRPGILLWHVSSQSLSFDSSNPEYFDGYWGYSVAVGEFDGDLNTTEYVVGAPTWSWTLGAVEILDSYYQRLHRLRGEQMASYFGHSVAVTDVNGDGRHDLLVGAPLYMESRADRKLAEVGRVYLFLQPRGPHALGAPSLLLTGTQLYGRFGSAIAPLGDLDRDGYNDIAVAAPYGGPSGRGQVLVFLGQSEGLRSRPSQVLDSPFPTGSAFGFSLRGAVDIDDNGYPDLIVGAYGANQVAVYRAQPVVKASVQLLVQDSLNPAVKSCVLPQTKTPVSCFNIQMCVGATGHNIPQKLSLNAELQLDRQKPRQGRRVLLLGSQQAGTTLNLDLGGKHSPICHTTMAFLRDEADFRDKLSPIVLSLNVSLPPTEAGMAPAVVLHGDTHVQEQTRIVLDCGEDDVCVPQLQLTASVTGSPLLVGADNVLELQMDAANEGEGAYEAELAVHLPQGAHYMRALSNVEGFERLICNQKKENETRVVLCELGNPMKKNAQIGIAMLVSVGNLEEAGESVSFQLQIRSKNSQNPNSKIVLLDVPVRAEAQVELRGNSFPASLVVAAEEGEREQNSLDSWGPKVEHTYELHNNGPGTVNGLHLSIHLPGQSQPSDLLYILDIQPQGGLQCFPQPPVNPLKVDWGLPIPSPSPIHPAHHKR
# Sequence (P08514 891-1039 limits assumed): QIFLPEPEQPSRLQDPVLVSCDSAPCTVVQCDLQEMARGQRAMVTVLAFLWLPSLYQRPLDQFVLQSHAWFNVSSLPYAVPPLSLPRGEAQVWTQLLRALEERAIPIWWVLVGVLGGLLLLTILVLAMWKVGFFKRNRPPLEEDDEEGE
# assay-remarks: Displacement of extracellular matrix protein fibrinogen from human integrin alpha2bbeta3 after 1 hr by competitive ELISA
# Type: protein-complex assay
# setup-conditions: read-out: IC50
assay-readout: IC50 (nM)

> print(dat)
                                chem.smiles                               measured.on  assay.readout  reported.result
1  O=C(NC[C@H](NS(=O)(=O)c1ccccc1)P(=O)(O)O)c1ccc(OCCC2CCNCC2)cc1  Integrin alpha-IIb/beta-3 (Homo sapiens, UniProt P05106+P08514)           IC50             22.7
2  O=C(NC[C@@H](NS(=O)(=O)c1ccccc1)P(=O)(O)O)c1ccc(OCCC2CCNCC2)cc1  Integrin alpha-IIb/beta-3 (Homo sapiens, UniProt P05106+P08514)           IC50              136
3  O=C(NC[C@@H](NS(=O)(=O)c1ccccc1)[PH](=O)O)c1ccc(OCCC2CCNCC2)cc1  Integrin alpha-IIb/beta-3 (Homo sapiens, UniProt P05106+P08514)           IC50              6.3
4  O=C(NC[C@H](NS(=O)(=O)c1ccccc1)[PH](=O)O)c1ccc(OCCC2CCNCC2)cc1  Integrin alpha-IIb/beta-3 (Homo sapiens, UniProt P05106+P08514)           IC50              1.2
5  O=C(NC[C@H](NS(=O)(=O)c1ccccc1)C(=O)O)c1ccc(OCCC2CCNCC2)cc1  Integrin alpha-IIb/beta-3 (Homo sapiens, UniProt P05106+P08514)           IC50             0.81

A: COP(=O)(O)[C@H](CNC(=O)c1ccc(OCCC2CCNCC2)cc1)NS(=O)(=O)c1ccccc1
B: O=C(NC[C@H](NS(=O)(=O)c1ccccc1)P(O)(O)=S)c1ccc(OCCC2CCNCC2)cc1
Task: Determine, for A and B , which has the greater value of IC50. Response format: the label of the selected entry.
Result: B

P: O=C(NC[C@@H](NS(=O)(=O)c1ccccc1)C(=O)O)c1ccc(OCCC2CCNCC2)cc1
Q: O=C(NC[C@@H](NS(=O)(=O)c1ccccc1)P(O)(O)=S)c1ccc(OCCC2CCNCC2)cc1
Task: Compare P and Q by numeric IC50 and name the larger one. Mark your selection by writing its label.
Result: Q
